# Tested on: Escherichia coli TOP10
# experiment description: shrunken log2 fold change of peptide-encoding DNA abundance (4.5 h post-induction vs induction); higher = less antimicrobial activity (less host growth inhibition)
# applied conditions: time post-induction: 4.5 h; library: site-saturation at positions 5, 18, 19, 20
Returns Y if the recorded shrunken log2 fold change is greater than or equal to -0.06, and N otherwise.

> print(dat)
             sequence.input            assay.system  class.name
 1  RRIRCRPPRLPRPRPRPVWFPRP  Escherichia coli TOP10           Y
 2  RRIRARPPRLPRPRPRPQEYPRP  Escherichia coli TOP10           Y
 3  RRIRNRPPRLPRPRPRPRYRPRP  Escherichia coli TOP10           N
 4  RRIRQRPPRLPRPRPRPSCRPRP  Escherichia coli TOP10           N
 5  RRIRVRPPRLPRPRPRPKKRPRP  Escherichia coli TOP10           Y
 6  RRIRFRPPRLPRPRPRPYSVPRP  Escherichia coli TOP10           Y
 7  RRIRVRPPRLPRPRPRPLCLPRP  Escherichia coli TOP10           N
 8  RRIRGRPPRLPRPRPRPFMDPRP  Escherichia coli TOP10           Y
 9  RRIRSRPPRLPRPRPRPNTFPRP  Escherichia coli TOP10           Y
10  RRIRVRPPRLPRPRPRPFQRPRP  Escherichia coli TOP10           Y
11  RRIRCRPPRLPRPRPRPYMTPRP  Escherichia coli TOP10           N
12  RRIRARPPRLPRPRPRPPLTPRP  Escherichia coli TOP10           Y
13  RRIRNRPPRLPRPRPRPPNMPRP  Escherichia coli TOP10           N
14  RRIRWRPPRLPRPRPRPWRAPRP  Escherichia coli TOP10           Y
15  RRIRRRPPRLPRPRPRPLGEPRP  Escherichia coli TOP10           Y
16  RRIRNRPPRLPRPRPRPETNPRP  Escherichia coli TOP10           Y
17  RRIRQRPPRLPRPRPRPYDAPRP  Escherichia coli TOP10           Y
18  RRIRLRPPRLPRPRPRPERWPRP  Escherichia coli TOP10           Y
19  RRIRRRPPRLPRPRPRPHLAPRP  Escherichia coli TOP10           Y
20  RRIRTRPPRLPRPRPRPMQNPRP  Escherichia coli TOP10           N

---

# Tested on: Escherichia coli TOP10
# experiment description: shrunken log2 fold change of peptide-encoding DNA abundance (4.5 h post-induction vs induction); higher = less antimicrobial activity (less host growth inhibition)
# applied conditions: time post-induction: 4.5 h; library: site-saturation at positions 5, 18, 19, 20
Everything with shrunken log2 fold change lower than -0.01 is N; everything else, including exactly -0.01, is Y.

> print(dat)
             sequence.input  class.name
 1  RRIRDRPPRLPRPRPRPATGPRP           Y
 2  RRIRVRPPRLPRPRPRPVFDPRP           N
 3  RRIRWRPPRLPRPRPRPWPVPRP           Y
 4  RRIRDRPPRLPRPRPRPFYTPRP           N
 5  RRIRNRPPRLPRPRPRPGNYPRP           Y
 6  RRIRKRPPRLPRPRPRPRVLPRP           Y
 7  RRIRGRPPRLPRPRPRPQTRPRP           Y
 8  RRIRCRPPRLPRPRPRPGKGPRP           N
 9  RRIRSRPPRLPRPRPRPDAGPRP           Y
10  RRIRRRPPRLPRPRPRPTCVPRP           Y
11  RRIRQRPPRLPRPRPRPEMDPRP           Y
12  RRIRPRPPRLPRPRPRPCHEPRP           N
13  RRIRVRPPRLPRPRPRPAAQPRP           Y
14  RRIRMRPPRLPRPRPRPENNPRP           Y
15  RRIRTRPPRLPRPRPRPSCAPRP           N
16  RRIRLRPPRLPRPRPRPGDYPRP           N
17  RRIRYRPPRLPRPRPRPMKAPRP           Y
18  RRIRFRPPRLPRPRPRPAGQPRP           Y
19  RRIRPRPPRLPRPRPRPMYCPRP           N
20  RRIRPRPPRLPRPRPRPQQPPRP           Y
21  RRIRGRPPRLPRPRPRPWQVPRP           Y
22  RRIRRRPPRLPRPRPRPVDGPRP           Y
23  RRIRVRPPRLPRPRPRPKIRPRP           Y
24  RRIRSRPPRLPRPRPRPEYCPRP           Y
25  RRIRARPPRLPRPRPRPFYSPRP           N
26  RRIRMRPPRLPRPRPRPQWYPRP           N
27  RRIRQRPPRLPRPRPRPPYPPRP           N
28  RRIRIRPPRLPRPRPRPRCGPRP           Y
29  RRIRYRPPRLPRPRPRPERSPRP           Y
30  RRIRTRPPRLPRPRPRPQFIPRP           N
31  RRIRFRPPRLPRPRPRPMDCPRP           Y
32  RRIRRRPPRLPRPRPRPKMKPRP           Y
33  RRIRARPPRLPRPRPRPEMKPRP           Y
34  RRIRNRPPRLPRPRPRPDTNPRP           N
35  RRIRIRPPRLPRPRPRPRYGPRP           N
36  RRIRYRPPRLPRPRPRPHKIPRP           N
37  RRIRMRPPRLPRPRPRPHPWPRP           Y
38  RRIRYRPPRLPRPRPRPDPNPRP           N
39  RRIRDRPPRLPRPRPRPIKMPRP           Y
40  RRIRNRPPRLPRPRPRPFEAPRP           Y
41  RRIRFRPPRLPRPRPRPGVFPRP           N
42  RRIRVRPPRLPRPRPRPMMLPRP           N
43  RRIRNRPPRLPRPRPRPDEPPRP           N
44  RRIRGRPPRLPRPRPRPQTFPRP           Y
45  RRIRDRPPRLPRPRPRPIFCPRP           N
46  RRIRCRPPRLPRPRPRPQRYPRP           N
47  RRIRYRPPRLPRPRPRPHDYPRP           N
48  RRIRDRPPRLPRPRPRPHLDPRP           N
49  RRIRDRPPRLPRPRPRPATKPRP           Y
50  RRIRPRPPRLPRPRPRPHWRPRP           Y
51  RRIRVRPPRLPRPRPRPTRMPRP           Y

---

# System: Escherichia coli TOP10;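 further: peptides expressed intracellularly from a pBAD plasmid library in pooled LB shake-flask culture, induced with 0.3% L-arabinose, DNA abundance read by NGS, three biological replicates, DESeq2 with apeglm shrinkage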
# experiment description: shrunken log2 fold change of peptide-encoding DNA abundance (4.5 h post-induction vs induction); higher = less antimicrobial activity (less host growth inhibition)
# applied conditions: time post-induction: 4.5 h; library: site-saturation at positions 5, 18, 19, 20
Overview of recorded shrunken log2 fold change for various sequences
quantity name: shrunken log2 fold change

> print(dat)
             sequence.input  measured
 1  RRIRLRPPRLPRPRPRPKPLPRP     0.144
 2  RRIRMRPPRLPRPRPRPMLKPRP     0.197
 3  RRIRARPPRLPRPRPRPPSDPRP     0.705
 4  RRIRQRPPRLPRPRPRPQKGPRP     0.011
 5  RRIRRRPPRLPRPRPRPGPEPRP     0.662
 6  RRIRGRPPRLPRPRPRPYEWPRP    -0.027
 7  RRIRDRPPRLPRPRPRPSITPRP    -0.197
 8  RRIRVRPPRLPRPRPRPPEDPRP     0.425
 9  RRIRLRPPRLPRPRPRPNQIPRP    -0.253
10  RRIRTRPPRLPRPRPRPFHFPRP    -0.303
11  RRIRARPPRLPRPRPRPFAFPRP     0.552
12  RRIRARPPRLPRPRPRPSYEPRP    -0.069
13  RRIRCRPPRLPRPRPRPRCMPRP    -0.143
14  RRIRKRPPRLPRPRPRPDFRPRP     0.134
15  RRIRFRPPRLPRPRPRPCHGPRP     -1.45
16  RRIRDRPPRLPRPRPRPWLVPRP    -0.117
17  RRIRQRPPRLPRPRPRPMPHPRP   -0.0205
18  RRIRWRPPRLPRPRPRPTICPRP    -0.106
19  RRIRKRPPRLPRPRPRPDDRPRP    0.0147
20  RRIRQRPPRLPRPRPRPIHNPRP    -0.464
21  RRIRWRPPRLPRPRPRPCLNPRP    0.0137
22  RRIRSRPPRLPRPRPRPFGKPRP   -0.0207
23  RRIRKRPPRLPRPRPRPTRDPRP     0.753
24  RRIRSRPPRLPRPRPRPLQWPRP   -0.0911
25  RRIRWRPPRLPRPRPRPMKDPRP    -0.141
26  RRIRDRPPRLPRPRPRPDKFPRP    0.0288
27  RRIRARPPRLPRPRPRPNEWPRP    0.0144
